Measured values drawn from patent US20230257396A1 for this set.

EXPERIMENTAL_TARGET: kinases (Homo sapiens)
Construct: purchased Eurofins/DiscoveRx; host or cells: E. coli BL21-derived host (T7 phage display) for most kinases; HEK-293 for the rest
EXPERIMENTAL_DETAILS: KINOMEscan kinase binding assay (Eurofins/DiscoveRx), % Ctrl
RECORDED_CONDITIONS: 1 μM; KIT
MEASURED_PARAMETER: % Ctrl, KIT (% Ctrl)

Examples with answers:
COMPOUND: Cc1cc2c([nH]1)/C=C1\C(=O)Nc3cc(Cl)c(cc31)OCCO[C@@H](C(=O)N[C@@H]1CCNC1)CN(C)C2=O [Ex. 136]
UNIT_TEXT: % Ctrl
% Ctrl, KIT: 49

COMPOUND: Cc1cc2c([nH]1)/C=C1\C(=O)Nc3ccc(cc31)-c1c(noc1C)COCCN(C)C2=O [Ex. 128]
UNIT_TEXT: % Ctrl
% Ctrl, KIT: 98

COMPOUND: CNC(=O)[C@H]1CN(C)C(=O)c2cc(C)[nH]c2/C=C2\C(=O)Nc3cc(Cl)c(cc32)OCCO1 [Ex. 135]
UNIT_TEXT: % Ctrl
% Ctrl, KIT: 55

COMPOUND: Cc1cc2c([nH]1)/C=C1\C(=O)Nc3cnc(cc31)-c1cnn(C)c1COCCNC2=O [Ex.123]
UNIT_TEXT: % Ctrl
% Ctrl, KIT: 97

COMPOUND: Cc1cc2c([nH]1)/C=C1\C(=O)Nc3ccc(cc31)-c1ccnn1CCOCCN(C)C2=O [Ex. 41]
UNIT_TEXT: % Ctrl
% Ctrl, KIT: 58

[I] Cc1cc2c([nH]1)/C=C1\C(=O)Nc3ccc(cc31)-c1ccnn1CCNCCNC2=O [Ex. 43]
[II] Cc1cc2c([nH]1)/C=C1\C(=O)Nc3ccc(cc31)-c1cnn(C)c1CN(C)CCN(C)C2=O [Ex. 126]
Query block: Looking only at measured % Ctrl, KIT, which entry is lower, I or II ? Answer by stating the label of the chosen item.
Result block: II

[I] Cc1cc2c([nH]1)/C=C1\C(=O)Nc3ccc(nc31)-c1ccccc1OCCCNC2=O [Ex.22]
[II] Cc1cc2c([nH]1)/C=C1\C(=O)Nc3cc(Cl)c(cc31)OCCOCCN(C)C2=O [Ex. 131]
Query block: Please indicate which has the smaller reported % Ctrl, KIT: I , or II . Write the label of whichever entry you select.
Result block: II
(II: 1.1 % Ctrl, I: 100 % Ctrl)

###

EXPERIMENTAL_TARGET: kinases (Homo sapiens, UniProt P00533, G719C)
Construct: purchased Eurofins/DiscoveRx; host or cells: E. coli BL21-derived host (T7 phage display) for most kinases; HEK-293 for the rest
EXPERIMENTAL_DETAILS: KINOMEscan kinase binding assay (Eurofins/DiscoveRx), % Ctrl
RECORDED_CONDITIONS: target EGFR(G719C); 1 μM
MEASURED_PARAMETER: % Ctrl, EGFR(G719C) (% Ctrl)

[1] Cc1nn(C)c2c1-c1ccc3c(c1)/C(=C/c1[nH]ccc1C(=O)N(C)CCCO2)C(=O)N3
[2] CN1CCSCCOc2cc3c(cc2Cl)NC(=O)/C3=C\c2[nH]ccc2C1=O
Query block: When 1 and 2 are compared, which has the higher number for % Ctrl, EGFR(G719C)? Let me know the label of the one you choose.
Result block: 1
(1: 92 % Ctrl, 2: 49 % Ctrl)

[a] CN1CCOCCOc2cc3c(cc2Cl)NC(=O)/C3=C\c2[nH]ccc2C1=O
[b] Cc1cc2c([nH]1)/C=C1\C(=O)Nc3cnc(cc31)-c1cn[nH]c1CNCCN(C)C2=O
Query block: Smaller % Ctrl, EGFR(G719C) value, a vs b ? Use the label to indicate which entry you chose.
Result block: b
(b: 68 % Ctrl, a: 100 % Ctrl)

###

EXPERIMENTAL_TARGET: kinases (Homo sapiens, UniProt P00533, L861Q)
Construct: purchased Eurofins/DiscoveRx; host or cells: E. coli BL21-derived host (T7 phage display) for most kinases; HEK-293 for the rest
EXPERIMENTAL_DETAILS: KINOMEscan kinase binding assay (Eurofins/DiscoveRx), % Ctrl
RECORDED_CONDITIONS: 1 μM; EGFR(L861Q)
MEASURED_PARAMETER: % Ctrl, EGFR(L861Q) (% Ctrl)

STRUCTURE_SMILES_STRING: Cc1cc2c([nH]1)/C=C1\C(=O)Nc3cc(Cl)c(cc31)OCCO[C@@H](C(=O)NC1CCNCC1)CN(C)C2=O
READOUT_VALUE: 95

STRUCTURE_SMILES_STRING: Cc1cc2c([nH]1)/C=C1\C(=O)Nc3ccc(nc31)-c1ccccc1OCCCNC2=O
READOUT_VALUE: 87

STRUCTURE_SMILES_STRING: Cc1cc2c([nH]1)/C=C1\C(=O)Nc3ccc(cc31)CN(C)C(=O)COCCNC2=O
READOUT_VALUE: 64

STRUCTURE_SMILES_STRING: Cc1cc2c([nH]1)/C=C1\C(=O)Nc3cnc(cc31)-c1cnn(C)c1COCCNC2=O
READOUT_VALUE: 100

STRUCTURE_SMILES_STRING: Cc1cc2c([nH]1)/C=C1\C(=O)Nc3cc(Cl)c(cc31)OCCO[C@@H](C(=O)N(C)C)CN(C)C2=O
READOUT_VALUE: 100

[1] Cc1cc2c([nH]1)/C=C1\C(=O)Nc3cc(Cl)c(cc31)OCCO[C@@H](C(=O)N[C@@H]1CCNC1)CN(C)C2=O
[2] Cc1cc2c([nH]1)/C=C1\C(=O)Nc3ccc(cc31)-c1cnn(C)c1CN(C)CCN(C)C2=O
Query block: Given the listed items, does 1 or 2 have the lesser reported % Ctrl, EGFR(L861Q)? Give the label of your selection.
Result block: 2

###

EXPERIMENTAL_TARGET: kinases (Homo sapiens, UniProt P16234)
Construct: purchased Eurofins/DiscoveRx; host or cells: E. coli BL21-derived host (T7 phage display) for most kinases; HEK-293 for the rest
Sequence (P16234 24-1089): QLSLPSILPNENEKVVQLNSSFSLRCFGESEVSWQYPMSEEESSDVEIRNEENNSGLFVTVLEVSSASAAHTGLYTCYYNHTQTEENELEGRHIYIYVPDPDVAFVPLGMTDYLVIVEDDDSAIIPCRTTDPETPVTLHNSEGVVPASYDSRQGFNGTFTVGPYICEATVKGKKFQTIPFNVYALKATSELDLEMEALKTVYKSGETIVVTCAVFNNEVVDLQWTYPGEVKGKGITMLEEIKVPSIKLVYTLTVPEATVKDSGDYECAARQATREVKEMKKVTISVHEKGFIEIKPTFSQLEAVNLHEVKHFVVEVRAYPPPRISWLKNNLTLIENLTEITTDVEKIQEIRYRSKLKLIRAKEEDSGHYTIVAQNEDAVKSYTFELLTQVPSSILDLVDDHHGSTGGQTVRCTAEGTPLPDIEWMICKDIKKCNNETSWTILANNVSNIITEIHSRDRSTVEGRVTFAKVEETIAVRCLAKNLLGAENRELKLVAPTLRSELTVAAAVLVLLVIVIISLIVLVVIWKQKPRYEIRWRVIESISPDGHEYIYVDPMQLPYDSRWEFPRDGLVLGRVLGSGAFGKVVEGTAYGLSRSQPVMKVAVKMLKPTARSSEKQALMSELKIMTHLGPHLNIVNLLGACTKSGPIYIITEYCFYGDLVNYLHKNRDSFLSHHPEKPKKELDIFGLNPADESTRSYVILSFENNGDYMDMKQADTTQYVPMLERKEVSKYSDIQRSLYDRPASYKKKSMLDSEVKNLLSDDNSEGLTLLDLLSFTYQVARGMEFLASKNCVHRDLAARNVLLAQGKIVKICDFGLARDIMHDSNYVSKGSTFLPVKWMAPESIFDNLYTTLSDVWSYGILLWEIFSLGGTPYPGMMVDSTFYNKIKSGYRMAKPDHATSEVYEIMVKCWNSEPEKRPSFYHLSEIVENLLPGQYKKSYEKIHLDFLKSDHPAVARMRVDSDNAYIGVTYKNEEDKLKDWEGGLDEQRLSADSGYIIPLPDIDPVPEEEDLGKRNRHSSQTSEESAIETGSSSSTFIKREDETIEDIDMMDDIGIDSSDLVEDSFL
EXPERIMENTAL_DETAILS: KINOMEscan kinase binding assay (Eurofins/DiscoveRx), % Ctrl
RECORDED_CONDITIONS: 1 μM; PDGFRA
MEASURED_PARAMETER: % Ctrl, PDGFRA (% Ctrl)

STRUCTURE_SMILES_STRING: Cc1cc2c([nH]1)/C=C1\C(=O)Nc3ccc(cc31)-c1cnn(C)c1CNCCN(C)C2=O
MEASURED_PARAMETER: % Ctrl, PDGFRA
READOUT_VALUE: 7.7

[I] Cc1cc2c([nH]1)/C=C1\C(=O)Nc3cc(Cl)c(cc31)OCCO[C@@H](C(=O)N[C@@H]1CCNC1)CN(C)C2=O
[II] Cc1cc2c([nH]1)/C=C1\C(=O)Nc3cnc(nc31)N(C)CCCOCCN(C)C2=O
Query block: Lower value for measured % Ctrl, PDGFRA? Options: I , II Could you answer with the label of the item you picked?
Result block: I

[A] Cc1cc2c([nH]1)/C=C1\C(=O)Nc3ccc(cc31)-c1c(C)n[nH]c1CNCCN(C)C2=O
[B] CNC(=O)[C@H]1CN(C)C(=O)c2cc(C)[nH]c2/C=C2\C(=O)Nc3cc(Cl)c(cc32)OCCO1
Query block: Lower value for measured % Ctrl, PDGFRA? Options: A , B Identify your pick by its label.
Result block: A

[P] Cc1cc2c([nH]1)/C=C1\C(=O)Nc3ccc(cc31)OCCOCCN(C)C2=O
[Q] Cc1cc2c([nH]1)/C=C1\C(=O)Nc3ccc(cc31)-c1ccnn1CCNCCNC2=O
Query block: Kindly identify which of P and Q has the larger recorded % Ctrl, PDGFRA value. Select an item and report its label.
Result block: Q
(Q: 80 % Ctrl, P: 52 % Ctrl)

###

EXPERIMENTAL_TARGET: kinases (Homo sapiens, UniProt P00533, G719S)
Construct: purchased Eurofins/DiscoveRx; host or cells: E. coli BL21-derived host (T7 phage display) for most kinases; HEK-293 for the rest
EXPERIMENTAL_DETAILS: KINOMEscan kinase binding assay (Eurofins/DiscoveRx), % Ctrl
RECORDED_CONDITIONS: target EGFR(G719S); 1 μM
MEASURED_PARAMETER: % Ctrl, EGFR(G719S) (% Ctrl)

Look over these answered cases.
STRUCTURE_SMILES_STRING: Cc1cc2c([nH]1)/C=C1\C(=O)Nc3cnc(cc31)-c1cn[nH]c1CNCCN(C)C2=O
EXPERIMENTAL_TARGET: kinases (Homo sapiens, UniProt P00533, G719S)
READOUT_VALUE: 67
--
STRUCTURE_SMILES_STRING: CN1CCOCCOc2cc3c(cc2Cl)NC(=O)/C3=C\c2[nH]ccc2C1=O
EXPERIMENTAL_TARGET: kinases (Homo sapiens, UniProt P00533, G719S)
READOUT_VALUE: 94
--
STRUCTURE_SMILES_STRING: Cc1cc2c([nH]1)/C=C1\C(=O)Nc3cc(Cl)c(cc31)OCCO[C@@H](C(=O)N1CCN(C)CC1)CN(C)C2=O
EXPERIMENTAL_TARGET: kinases (Homo sapiens, UniProt P00533, G719S)
READOUT_VALUE: 95

[1] Cc1cc2c([nH]1)/C=C1\C(=O)Nc3ccc(cc31)-c1c(noc1C)CNCCN(C)C2=O
[2] CN1CCSCCOc2cc3c(cc2Cl)NC(=O)/C3=C\c2[nH]ccc2C1=O
[3] Cc1nn(C)c2c1-c1ccc3c(c1)/C(=C/c1[nH]ccc1C(=O)N(C)CCCO2)C(=O)N3
Query block: Hi! Can you put these in order of % Ctrl, EGFR(G719S), lowest number first? Reply with the labels, ordered as the question asks.
Result block: 3, 2, 1
(3: 8 % Ctrl, 2: 45 % Ctrl, 1: 84 % Ctrl)
